Readings of chromatographic logP for the listed compounds
assay: Determination of the log P values by HPLC (formic acid method); format: physicochemical; settings: reversed-phase HPLC column (C 18), reversed-phase column (C 18), acidic range (pH 3.4), 55° C.

| smiles code | chromatographic logP |
| --- | --- |
| N#Cc1c(-c2ccc(F)cc2)ccnc1-n1ccc(NC(=O)c2ccccc2C(F)(F)F)n1 | 3.41 |
| Nc1ccn(-c2cc(F)cnc2F)n1 | 1.15 |
| O=C(Nc1ccn(-c2c(F)cc(C(F)(F)F)cc2F)n1)c1ccccc1C(F)(F)F | 3.39 |
| N#Cc1ccc(Cl)nc1-n1ccc(NC(=O)c2ccccc2C(F)(F)F)n1 | 3.14 |
| O=C(Nc1ccn(-c2c(F)cccc2F)c1)c1ccccc1C(F)(F)F | 2.96 |

* * *

Test: Determination of the log P values by HPLC (formic acid method)
Assay type: physicochemical
Conditions: reversed-phase column (C 18), acidic range (pH 3.4), 55° C.
Procedure: 1) Description of Method for Determination of the Log P Values (Formic Acid Method) Eluents for determination in the acidic range (pH 3.4): Eluent A: acetonitrile+1 ml of formic acid/liter. Eluent B: water+0.9 ml of formic acid/liter. The lambda max values were determined in the maxima of the chromatographic signals using the UV spectra from 200 nm to 400 nm.
Quick rule for you: log P under 3 gets Satisfied, anything else gets Not satisfied.

| compound | category label |
| --- | --- |
| O=C(Nc1ccn(-c2cccc(F)c2F)n1)c1ncccc1C(F)(F)F [Compound I-1-68] | Not satisfied |
| CC#CCN(C(=O)c1ccccc1C(F)(F)F)c1ccn(-c2c(F)cccc2F)n1 [Compound I-1-263] | Not satisfied |
| CCOc1cccc(Cl)c1-n1ccc(NC(=O)c2ccccc2C(F)(F)F)n1 [Compound I-1-340] | Not satisfied |
| C=CCN(C(=O)c1ccccc1Cl)c1ccn(-c2ccccc2Cl)n1 [Compound I-1-26] | Not satisfied |
| O=C(Nc1cnn(-c2ncccc2Cl)n1)c1cccnc1C(F)(F)F [Compound I-2-55] | Satisfied |
| O=C(Nc1nn(-c2ncccc2Cl)nc1Cl)c1ccccc1C(F)(F)F [Compound I-2-11] | Satisfied |
| O=C(c1cccnc1Cl)N(C(=O)c1cccnc1Cl)c1nn(-c2ccccc2Br)nc1Cl [Compound I-2-23] | Not satisfied |

* * *

test: Determination of the log P values by HPLC (formic acid method); format: physicochemical; settings: reversed-phase column (C 18), acidic range (pH 3.4), 55° C.
Readings of log P for the listed compounds

| smiles code | log P |
| --- | --- |
| Cc1nn(C(F)F)c(C(=O)Nc2ccn(-c3ncc(F)cc3F)n2)c1Cl | 2.84 |
| O=C(Nc1cnn(-c2c(F)cccc2F)n1)c1cccnc1Br | 2.09 |
| CCc1cc(NC(=O)c2c(F)cccc2F)nn1-c1ccc(F)cc1F | 3.84 |
| COc1ccc(C(=O)Nc2ccn(-c3c(F)cccc3F)c2)c(Cl)c1 | 2.97 |
| Cc1nc(C)c(C(=O)Nc2ccn(-c3c(F)cccc3F)n2)s1 | 2.09 |
| O=C(Nc1ccn(-c2cnc(Cl)cn2)n1)c1ccccc1C(F)(F)F | 2.94 |
| Cc1cc(NC(=O)c2c(F)cccc2F)nn1-c1ccc(F)cc1F | 3.42 |
| O=C(Nc1cnn(-c2ncc(C(F)(F)F)cc2Cl)n1)c1ccccc1I | 3.28 |
| O=C(Nc1ccn(-c2c(F)cccc2F)n1)c1cccnc1CC(F)(F)F | 2.35 |
| O=C(Nc1ccn(-c2ncc(F)cc2F)n1)c1c(Cl)cccc1Cl | 2.51 |
| Cc1noc(C(F)(F)F)c1C(=O)Nc1ccn(-c2c(F)cccc2F)n1 | 2.80 |
| CCc1cccc(F)c1C(=O)Nc1ccn(-c2c(F)cccc2F)n1 | 2.85 |
| O=C(Nc1ccn(-c2ccc(F)cn2)n1)c1cccnc1C(F)(F)F | 2.32 |
| CS(=O)(=O)c1ccccc1-n1ccc(NC(=O)c2ccccc2I)n1 | 2.10 |
| Cn1ccc([N+](=O)[O-])c1C(=O)Nc1ccn(-c2c(F)cccc2F)n1 | 2.50 |
| O=C(Nc1ccn(-c2nc(F)c(F)cc2F)n1)c1ccccc1C(F)(F)F | 2.78 |
| N#Cc1cn(-c2ccccc2Cl)nc1NC(=O)c1ccccc1C(F)(F)F | 2.53 |
| O=C(Nc1ccn(-c2ncc(Cl)cc2F)n1)c1ccccc1C(F)(F)F | 2.91 |

Data provenance: patent US9802899B2
